// provenance: patent US20120264685A1

test: Stability in simulated gastric fluid; type: in vitro ADME; conditions: simulated gi fluid; 2 μM, 37° C., pH 1.5; read-out: half-life (t1/2) in simulated gastric fluid
Where a SMILES comes first, the peptide text is derived from it. [ ]: non-standard residue; d: D form. ξ: configuration not given here. ξαMeBip(2'-Et,4'-OMe) = CCc1cc(OC)ccc1-c1ccc(CC(C)(N)C(=O)O)cc1; ξBip(2'-Et-4'-OMe) = CCc1cc(OC)ccc1-c1ccc(CC(N)C(=O)O)cc1; ξαMePhe(2,6-F2) = CC(N)(Cc1c(F)cccc1F)C(=O)O; ξαMe(hhPhe) = CC(N)(CCCc1ccccc1)C(=O)O; ξhhPhe = NC(CCCc1ccccc1)C(=O)O; ξαMeD = CC(N)(CC(=O)O)C(=O)O; ξαMeS = CC(N)(CO)C(=O)O

compound	half-life
CCc1cc(OC)ccc1-c1ccc(CC(C)(NC(=O)[C@H](CC(=O)O)NC(=O)C(C)(CO)NC(=O)[C@@H](NC(=O)[C@H](Cc2ccccc2)NC(=O)[C@@H](NC(=O)CNC(=O)[C@H](CCC(=O)O)NC(=O)[C@H](C)NC(=O)[C@H](Cc2c[nH]cn2)NC(=O)[C@@H](N)C(C)C)[C@@H](C)O)[C@@H](C)O)C(=O)NC(CCCc2ccccc2)C(N)=O)cc1 (stereo partly drawn) [compound 38] (H-VHAEGTFT[ξαMeS]D[ξαMeBip(2'-Et,4'-OMe)][ξhhPhe]-NH2)	> 24 h
CCc1cc(OC)ccc1-c1ccc(CC(C)(NC(=O)[C@H](CC(=O)O)NC(=O)C(C)(CO)NC(=O)[C@@H](NC(=O)C(C)(Cc2c(F)cccc2F)NC(=O)[C@@H](NC(=O)CNC(=O)[C@H](CCC(N)=O)NC(=O)[C@H](C)NC(=O)[C@H](Cc2c[nH]cn2)NC(=O)[C@@H](N)C(C)C)[C@@H](C)O)[C@@H](C)O)C(=O)NC(CCCc2ccccc2)C(N)=O)cc1 (stereo partly drawn) [compound 50] (H-VHAQGT[ξαMePhe(2,6-F2)]T[ξαMeS]D[ξαMeBip(2'-Et,4'-OMe)][ξhhPhe]-NH2)	0.5 h
CCc1cc(OC)ccc1-c1ccc(CC(NC(=O)C(C)(CC(=O)O)NC(=O)C(C)(CO)NC(=O)[C@@H](NC(=O)[C@H](Cc2ccccc2)NC(=O)[C@@H](NC(=O)CNC(=O)[C@H](CCC(N)=O)NC(=O)[C@H](C)NC(=O)[C@H](Cc2c[nH]cn2)NC(=O)[C@@H](N)C(C)C)[C@@H](C)O)[C@@H](C)O)C(=O)NC(C)(CCCc2ccccc2)C(N)=O)cc1 (stereo partly drawn) [compound 108] (H-VHAQGTFT[ξαMeS][ξαMeD][ξBip(2'-Et-4'-OMe)][ξαMe(hhPhe)]-NH2)	> 24 h
